src = PubChem BioAssay AID1159580

measurementDescription: chemical genetic growth profiling, strain panel (AID 1159580);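 further: tested at 20 µM; growth read once vehicle control cultures reached saturation at 30 °C; 1 = growth at the plate median or of vehicle wells; lower values mean less growth of the strain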
conditionDetails: S. cerevisiae deletion strains, growth OD, locus YBR229C, strain ROT2, hits give low values
Out of some 5,500 compounds screened, about 2,000 (36%) were called active. Roughly 18% stayed inconclusive and do not appear here. The list shows a part of the results.
What normalized growth was measured for each of the following?
Give bare numbers.

Use these answered entries as a reference point.
compound: COC(=O)c1sccc1NC(=O)C1CC1
normalized growth: 1
//
compound: O=C(O)CN1C(=O)c2cccc3cccc(c23)C1=O
normalized growth: 1.01

Dear reader, for each entry below, please note its normalized growth.
1. C=C1CCC2C(CC2(C)C)C(=O)CCC1O (stereo not given)
2. CC(=O)OC1CCC2(C)C(=CC=C3C2CCC2(C)C3CCC2C(C)/C=C/C(C)C(C)C)C1(C)C (stereo not given)
3. C=C1CCC(OC(C)=O)/C(C)=C/C[C@@H]2[C@@H]1CC2(C)C (stereo not given in full)
4. CCCc1cnc(N2CCCN(C(=S)Nc3cccnc3)CC2)nc1
5. CCOC(=O)Nc1ccsc1C(=O)OC
6. Oc1ccc(Cl)cc1Cc1cc(Cl)ccc1O
7. C/C1=C\CCC(=O)C2CC(C)(C)C2CC1 (stereo not given)

Response:
[1.01, 1.01, 1, 0.997, 1, 0.0685, 1.02]
